Experiment: qHTS assay for MDR1-selective chemotherapeutics: Primary screen using the drug-selected MDR subline cells KB-V1; also: nearly all actives have a fitted effect of over 60% in size
Conditions: KB-V1 MDR cells viability, CellTiter-Glo, 72 h; series mostly up to 46.1 µM
Hit rate of the full screen: of about 400,000 compounds, about 13,000 (3.2%) were called active. Roughly 18% stayed inconclusive and do not appear here. Calls follow the shape of the dose curve; as a rule, active = well fitted cell-killing curve with a large enough effect; inconclusive = small, poorly fitted or top-dose-only effect, or effect the other way; inactive = flat fitted curve, though single readings scatter. The list comes from a sample in which actives are over-represented; it also holds close analogues and randomly drawn compounds.
Allowed answers: active, inactive

Example entries begin here.
CCn1c(C(O)c2cc(OC)ccc2OC)nc2ccccc21 (centres undefined)
inactive
COc1ccc(/C=C2\SC(=S)N(CCC(=O)N3CCOCC3)C2=O)cc1OC
inactive
Cc1cc(C)cc(NS(=O)(=O)c2ccc(Oc3ncc(C(F)(F)F)cc3Cl)cc2)c1
active
Cc1ccc(NS(=O)(=O)c2ccc(C(C)(C)C)cc2)cn1
inactive

# input for lookup
Please let me know the test result on file for CSC1=NN(c2ccccc2)CN(c2ccccc2)N1C .
inactive

====

Test: qHTS assay for MDR1-selective chemotherapeutics: Primary screen using the drug-selected MDR subline cells KB-V1; also: nearly all actives have a fitted effect of over 60% in size
Details: KB-V1 MDR cells viability, CellTiter-Glo, 72 h; series mostly up to 46.1 µM
In all, about 400,000 compounds went through this assay and about 13,000 (3.2%) were called active. About 18% were inconclusive and are not listed. The call rests on the fitted dose curve; in most records, active means well fitted cell-killing curve with a large enough effect; inconclusive means small, poorly fitted or top-dose-only effect, or effect the other way; inactive means flat fitted curve, though single readings scatter. This is one part of a sample in which actives are shown more often than they occur.
Allowed answers: 1.0 for active, 0.0 for inactive

Cc1cccc(OCC(=O)NCC(=O)N/N=C/c2ccc(N(C)C)cc2)c1
0.0
Fc1ccc2[nH]c3c(N4CCSCC4)ncnc3c2c1
1.0
CCCCCc1c(C)nc(N2CCN(Cc3ccc4c(c3)OCO4)CC2)[nH]c1=O
0.0

Please let me know the test result on file for O=C(Nc1cc(F)ccc1F)c1ccc2c(=O)n3c(nc2c1)CCC3 .
0.0

Cc1ccc(/C=N/NC(=O)CSc2nc3ccccc3o2)cc1 , same question.
0.0

O=c1[nH]c(N2CCN(Cc3ccc4c(c3)OCO4)CC2)nc2c1CCCC2 , same question.
0.0

====

Test: qHTS assay for MDR1-selective chemotherapeutics: Primary screen using the drug-selected MDR subline cells KB-V1; also: nearly all actives have a fitted effect of over 60% in size; also: potency is read from the fitted curve at half-maximal effect
Conditions: KB-V1 MDR cells viability, CellTiter-Glo, 72 h; series mostly up to 46.1 µM
Hit rate of the full screen: of about 400,000 compounds, about 13,000 (3.2%) were called active. Another 18% or so got no clear call; they are omitted. The list comes from a sample in which actives are over-represented; it also holds close analogues and randomly drawn compounds.
OBSERVATION TYPE: Potency

Nc1nc2c(ncn2[C@@H]2O[C@H](CNS(=O)(=O)N3CCc4ccccc4C3)[C@@H](O)[C@H]2O)c(=O)[nH]1
inactive
CNCC(O)CN1CCN(c2ccccc2OC)CC1 (stereo unspecified)
inactive
CC(=O)OC[C@@H]1CN(Cc2ccccc2)C[C@H](n2cnc3c(NCc4ccco4)ncnc32)O1
inactive
COc1ccc(Nc2cc(C(=O)NCCCN(C)c3ccccc3)c3ccccc3n2)c(OC)c1
inactive

Need Potency for each of these molecules.
1. C[C@H]1CN([C@@H](C)CO)S(=O)(=O)c2ccc(-c3cccc(F)c3)cc2O[C@@H]1CN(C)C
2. Cc1ccc(S(=O)(=O)N2CCOCC2)cc1C(=O)NC(=S)N(Cc1ccccc1)C(C)C

1: inactive; 2: 11.6 µM (active)

====

Assay: qHTS assay for MDR1-selective chemotherapeutics: Primary screen using the drug-selected MDR subline cells KB-V1; also: nearly all actives have a fitted effect of over 60% in size
Conditions: KB-V1 MDR cells viability, CellTiter-Glo, 72 h; series mostly up to 46.1 µM
The campaign covered roughly 400,000 compounds. About 13,000 (3.2%) were called active. Another 18% or so got no clear call; they are omitted. The call rests on the fitted dose curve; in most records, active means well fitted cell-killing curve with a large enough effect; inconclusive means small, poorly fitted or top-dose-only effect, or effect the other way; inactive means flat fitted curve, though single readings scatter. For the sample, actives were picked, then their nearest neighbours and some compounds at random.
Allowed answers: active, inactive

Please let me know the test result on file for Cc1ccc(C)c(N2CCN(S(=O)(=O)c3ccc4c(c3)oc(=O)n4C)CC2)c1 .
active

CC1(C(=O)NCc2ccccc2)CN(S(C)(=O)=O)CC(=O)N1CC(F)(F)F (stereo not given) , same question.
inactive

Cc1ccc(NS(=O)(=O)c2ccc3c(c2)oc(=O)n3C)c(C)c1 , same question.
inactive

C[C@@H]1CN([C@H](C)CO)C(=O)c2cc(Br)cnc2O[C@@H]1CN(C)Cc1cncnc1 , same question.
inactive

Cc1ccc2nc(NC(=O)C3CCN(S(=O)(=O)c4ccc5c(c4)oc(=O)n5C)CC3)sc2c1 , same question.
inactive
